System: OVCAR-8 ovarian
Experimental details: NCI tumour cell line growth inhibition, 48 h
Observation type: TGI

Recorded results for 4 compounds are shown here.
{"columns": ["Compound", "Assayed system", "Data value"],
 "data": [
  ["Nc1ncnc2c1ccn2COC(CO)CO", "OVCAR-8 ovarian", "> 100 µM"],
  ["CCc1cccc(C)c1NC(=O)CCc1n[nH]c(=S)o1", "OVCAR-8 ovarian", "> 100 µM"],
  ["COc1nc2c(nc(N)n2C2OC(CO)C(O)C(O)C2O)c(=O)[nH]1 (stereo not given)", "OVCAR-8 ovarian", "> 100 µM"],
  ["NC(=S)Nc1[nH]c(=S)nc2[nH]ccc12", "OVCAR-8 ovarian", "> 100 µM"]
]}

Turning to the following compound.
Q: Fill in: TGI of CC(C)OP(=O)(OC(C)C)c1ncc(-c2ccc(C(F)(F)F)cc2)c(NC2CCCCCC2)n1 is ___
Ans: > 10 µM

---

Test system: SK-OV-3 ovarian
Experimental details: NCI tumour cell line growth inhibition, 48 h
Where a SMILES comes first, the peptide text is derived from it. [ ]: non-standard residue; d: D form. The star is where a group is joined. ξ: configuration not given here. ξD = NC(CC(=O)O)C(=O)O; Boc = CC(C)(C)OC(=O)*; Aib = CC(C)(N)C(=O)O; OtBu = CC(C)(C)O*
Observation type: TGI

{"columns": ["Compound", "TGI"],
 "data": [
  ["CCOC(=O)/C(=C/c1ccc(C(F)(F)F)cc1)N(CC)CC", "> 100 µM"],
  ["Cn1c(=O)c2[nH]c(CSCc3ccccc3)nc2n(C)c1=O", "> 100 µM"]
]}

Q: Fill in: TGI of COC(=O)C(C)(C)NC(=O)C(C)(C)NC(=O)C(CC(=O)OC(C)(C)C)NC(=O)OC(C)(C)C (stereo not drawn) (Boc-[ξD](OtBu)-[Aib]-[Aib]-OMe) is ___
Ans: > 100 µM

---

Catalogue of compounds with associated TGI
Test system: RPMI-8226 leukemia
Experimental details: NCI tumour cell line growth inhibition, 48 h

Recorded results for 2 compounds are shown here.
{"columns": ["Compound", "TGI"],
 "data": [
  ["CC(=O)OC(C[C@H](C)[C@@H]1CC[C@]2(C)C3=CCC4C(C)(C)C(=O)CC[C@]4(C)C3CCC12C)C1OC1(C)C (stereo partly drawn)", "> 100 µM"],
  ["COC(=O)/C=C/CC(=O)NS(C)(=O)=O", "> 10 µM"]
]}

Turning to the following compound.
Q: Fill in: TGI of CN(C)CCCN1N=Nc2cccc3cccc1c23 is ___
Ans: > 69.3 µM

---

System: HL-60(TB) leukemia
Experimental details: NCI tumour cell line growth inhibition, 48 h
Observation type: log10 of TGI (log10 of the value in µM)
Hello, just confirming the data are log10 of TGI with units of µM.

{"columns": ["Compound", "Data value"],
 "data": [
  ["O=C(c1cccc(F)c1F)N1CCc2c([nH]c3ccccc23)C1c1ccc2c(c1)OCO2 (stereo not drawn)", 1.27],
  ["O=S(=O)(SCCCCSS(=O)(=O)c1ccc(Cl)cc1)c1ccc(Cl)cc1", 0.95],
  ["CC1=NN(c2cccc(Cl)c2)C2(C1=Cc1ccccc1)C(Cl)C(=O)N2c1nc2ccccc2s1 (stereo not drawn)", 1.82],
  ["CCOC(=O)C(=Cc1ccccc1Cl)C(=O)OCC", 0.58],
  ["CC[C@H](C)[C@H]1NC(=O)[C@@H](NC(=O)[C@@H](CC(C)C)N(C)C(=O)C2CCCN2C(=O)[C@H](C)O)[C@@H](C)OC(=O)[C@@H]2Cc3ccccc3CN2C(=O)[C@@H]2CCCN2C(=O)[C@H](CC(C)C)NC(=O)[C@@H](C)C(=O)[C@H](C(C)C)OC(=O)C[C@@H]1O (stereo partly drawn)", -0.36],
  ["O=C(O)/C=C\\C(=O)c1ccc(Cl)cc1", 1.77]
]}

Q: Fill in: log10 of TGI of COc1cc2c(cc1O)CC[C@@H]1[C@@H]2CC[C@]2(C)[C@@H](OCCCN(C)C)CC[C@@H]12 is ___
Ans: -0.69

Origin of measurements: PubChem BioAssay (NCI)
